Collected pIC50 values appear next to each entry.
# Tested on: MMP1 expression by activated synovial fibroblasts (RASFs)
# test_protocol: MMP assay: MMP1 expression by RASFs triggered with TNF-α (MMP1 ELISA)
# Type: cell-based
# applied_conditions: Fibroblast, 48 h, TNF-α trigger 10 ng/mL, semi-quantitative score, read-out: REDUCTION MMP1/TNFa
pIC50: −log10 of the molar value.

{"molecule": "COc1cc(-c2ccc(Nc3ccc(N4CCN(C5CCCCC5)CC4)cc3)c3ncnn23)ccn1 [Example 32]", "pIC50": "5.00 to 5.30"}
{"molecule": "O=C(NCc1cccnc1)c1ccc(Nc2ccc(-c3cc[nH]c(=O)c3)n3ncnc23)cc1 [Example 41]", "pIC50": "5.30 to 6.00"}
{"molecule": "NC(=O)c1ccc(-c2ccc(Nc3ccc(N4CCOCC4)cc3)c3ncnn23)cc1 [Example 1]", "pIC50": "6.00 to 6.30"}
{"molecule": "O=C(NCc1cccnc1)c1ccc(Nc2ccc(-c3cn[nH]c3)n3ncnc23)cc1 [Example 37]", "pIC50": "> 6.30"}
{"molecule": "c1cc(-c2ccc(Nc3ccc(N4CCOCC4)cc3)c3ncnn23)c2cc[nH]c2c1 [Example 48]", "pIC50": "5.30 to 6.00"}
{"molecule": "CC(C)N1CCN(c2ccc(Nc3ccc(-c4ccc5[nH]ccc5c4)n4ncnc34)cc2)CC1 [Example 51]", "pIC50": "< 5.00"}
{"molecule": "COc1ncc(-c2ccc(Nc3ccc(N4CCOCC4)cc3)c3ncnn23)c(OC)n1 [Example 54]", "pIC50": "< 5.00"}
{"molecule": "CCCN1CCN(c2ccc(Nc3ccc(-c4ccc(C(N)=O)cc4)n4ncnc34)cc2)CC1 [Example 13]", "pIC50": "< 5.00"}

* * *

# measurement_target: TAK1-TAB1 fusion protein (Homo sapiens)
# Sequence (O43318 with tags, fused parts or gaps limits assumed): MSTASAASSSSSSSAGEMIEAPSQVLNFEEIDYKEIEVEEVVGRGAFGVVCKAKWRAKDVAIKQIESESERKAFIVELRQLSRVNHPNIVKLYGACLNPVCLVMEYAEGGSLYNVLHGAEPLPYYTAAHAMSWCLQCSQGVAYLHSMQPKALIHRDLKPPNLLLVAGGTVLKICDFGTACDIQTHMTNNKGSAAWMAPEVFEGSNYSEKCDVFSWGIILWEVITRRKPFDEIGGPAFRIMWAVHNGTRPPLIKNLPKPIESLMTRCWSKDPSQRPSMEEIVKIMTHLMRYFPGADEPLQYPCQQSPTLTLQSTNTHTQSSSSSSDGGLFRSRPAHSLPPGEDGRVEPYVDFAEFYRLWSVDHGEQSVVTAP
# test_protocol: In vitro TAK1 kinase assay
# applied_conditions: casein substrate, [33P]-γ-ATP, 90 minutes at 30° C., semi-quantitative score, read-out: POTENCY TAK1 (MAP3K7)
Collected IC50 values appear next to each entry.
property: IC50

{"compound": "CN1CCN(c2ccc(Nc3ccc(-c4cn[nH]c4)n4ncnc34)cc2)CC1 [Example 2]", "measurement_target": "TAK1-TAB1 fusion protein (Homo sapiens)", "endpoint_result": "501 to 1000 nM"}
{"compound": "c1nc2c(Nc3ccc(N4CCN(C5CCC5)CC4)cc3)ccc(-c3cn[nH]c3)n2n1", "measurement_target": "TAK1-TAB1 fusion protein (Homo sapiens)", "endpoint_result": "< 500 nM"}
{"compound": "CN1CCN(c2ccc(Nc3ccc(-c4cc[nH]c(=O)c4)n4ncnc34)cc2)CC1 [Example 40]", "measurement_target": "TAK1-TAB1 fusion protein (Homo sapiens)", "endpoint_result": "< 500 nM"}
{"compound": "c1nc2c(Nc3ccc(N4CCOCC4)cc3)ccc(-c3ccc4cc[nH]c4c3)n2n1", "measurement_target": "TAK1-TAB1 fusion protein (Homo sapiens)", "endpoint_result": "> 10000 nM"}
{"compound": "CCN1CCN(c2ccc(Nc3ccc(-c4ccnc(OC)c4)n4ncnc34)cc2)CC1", "measurement_target": "TAK1-TAB1 fusion protein (Homo sapiens)", "endpoint_result": "> 10000 nM"}
{"compound": "CC(C)N1CCN(c2ccc(Nc3ccc(-c4c[nH]c(=O)[nH]c4=O)n4ncnc34)cc2)CC1", "measurement_target": "TAK1-TAB1 fusion protein (Homo sapiens)", "endpoint_result": "> 10000 nM"}
{"compound": "CN1CCN(c2ccc(Nc3ccc(-c4cn[nH]c4)n4ncnc34)cc2)CC1 [Example 36]", "measurement_target": "TAK1-TAB1 fusion protein (Homo sapiens)", "endpoint_result": "< 500 nM"}
{"compound": "CC(C)CCN1CCN(c2ccc(Nc3ccc(-c4cc[nH]c(=O)c4)n4ncnc34)cc2)CC1", "measurement_target": "TAK1-TAB1 fusion protein (Homo sapiens)", "endpoint_result": "< 500 nM"}
